# Target or system: Gal(b1-2)Gal
# Method summary: glycan array binding signal (z-score within array); higher = stronger binding
# Condition notes: glycan notation: IUPAC condensed, linker removed
The entries come from a sample that favours the strongest signals as a whole.
Observation type: glycan array binding signal (z-score)

Binder	Experimental value
MUB70 (Lactobacillus reuteri) (protein) CVHVQYIDGETDQMLRQDDLDGYTDETIPYSTAEGIKKFEGDGYELFKDNFPAGEKFDNDDTNDQFYTVIF	2.16
AT1G15820(2) (Arabidopsis thaliana), Q9LMQ2 (protein) MAMAVSGAVLSGLGSSFLTGGKRGATALASGVGTGAQRVGRKTLIVAAAAAQPKKSWIPAVKGGGNFLDPEWLDGSLPGDFGFDPLGLGKDPAFLKWYREAELIHGRWAMAAVLGIFVGQAWSGVAWFEAGAQPDAIAPFSFGSLLGTQLLLMGWVESKRWVDFFNPDSQSVEWATPWSKTAENFANYTGDQGYPGGRFFDPLGLAGKNRDGVYEPDFEKLERLKLAEIKHSRLAMVAMLIFYFEAGQGKTPLGALGL	0.453
SLLPI (Mus musculus), Q9D9X8 (protein) MGICMSMYTQVLVPVDADGDHHILWSRFYERWGSCFNPCAGLVNCLPPHSSALYLCHRMEARSRAPRRQLCPPGITWLALAYLLSCLLASSKAKVFSRCELAKEMHDFGLDGYRGYNLADWVCLAYYTSGFNTNAVDHEADGSTNNGIFQISSRRWCRTLASNGPNLCRIYCTDLLNNDLKDSIVCAMKIVQEPLGLGYWEAWRHHCQGRDLSDWVDGCDF	0.362
OrysaEULS2 (Oryza sativa) (protein) MVYCRANPNYAMTARNGAVVLAPANPKDEYQHWIKDMRWSTSIKDEEGYPAFALVNKATGQAIKHSLGQSHPVRLVPYNPEVMDESVLWTESRDVGNGFRCIRMVNNIYLNFDAFHGDKYHGGVRDGTDIVLWKWCEGDNQRWKIQPYYILEQKLISEEDLNSAVDHHHHHH	-0.142
HPA (Helix pomatia), Q575S3 (protein) MWAHLTGLLLICALSLSAAQRAQTGEIDCGSDSSWPKDPSDNPNRDNTREIVKHVTFSPQFCREPKVILSVTTLDAEHTKNLRYEARLKSVSPSGLSASCYSWHDGTIYRMKLSWLAVED	-0.259
